- System: CD4+ T cells in PBMC from people with recent onset T1D
- MEASUREMENT NOTES: CFSE-based proliferation assay, PBMC of people with T1D
- Format: cell-based, human
- STUDY CONDITIONS: T1D donor 16; CFSE-labelled PBMC, peptide 10 μM; mean CDI
Decide using Cell division index (CDI) alone. Strictly below 2: Criterion met. Equal to or above 2: Criterion not met.

{"columns": ["RESIDUE CODES", "TESTED ON", "GROUP LABEL"],
 "data": [
  ["EAEDLEVGEVELGGGPGAGSLEPLALEGSLE [QallE, C-peptide with all four glutamines substituted for glutamic acid]", "CD4+ T cells in PBMC from people with recent onset T1D", "Criterion met"],
  ["EAEDLEVGQVELGGGPGAGSLQPLALEGSLQ [Q6E, C-peptide variant with glutamine 6 substituted for glutamic acid]", "CD4+ T cells in PBMC from people with recent onset T1D", "Criterion not met"],
  ["EAEDLQVGQVELGGGPGAGSLEPLALEGSLQ [Q22E, C-peptide variant with glutamine 22 substituted for glutamic acid]", "CD4+ T cells in PBMC from people with recent onset T1D", "Criterion not met"],
  ["EAEDLQVGEVELGGGPGAGSLQPLALEGSLQ [Q9E, C-peptide variant with glutamine 9 substituted for glutamic acid]", "CD4+ T cells in PBMC from people with recent onset T1D", "Criterion not met"],
  ["EAEDLQVGQVELGGGPGAGSLQPLALEGSLQ [WT, reference compound]", "CD4+ T cells in PBMC from people with recent onset T1D", "Criterion not met"],
  ["EAEDLQVGQVELGGGPGAGSLQPLALEGSLE [Q31E, C-peptide variant with glutamine 31 substituted for glutamic acid]", "CD4+ T cells in PBMC from people with recent onset T1D", "Criterion met"]
]}

----------
- Test system: CD4+ T cells in PBMC from people with recent onset T1D
- MEASUREMENT NOTES: CFSE-based proliferation assay, PBMC of people with T1D
- Assay type: cell-based, human
- STUDY CONDITIONS: T1D donor 10; CFSE-labelled PBMC, peptide 10 μM; mean CDI
MEASUREMENT TYPE: Cell division index (CDI)

{"columns": ["RESIDUE CODES", "TESTED ON", "MEASUREMENT TYPE", "RECORDED RESULT"],
 "data": [
  ["EAEDLQVGQVELGGGPGAGSLQPLALEGSLE [Q31E, C-peptide variant with glutamine 31 substituted for glutamic acid]", "CD4+ T cells in PBMC from people with recent onset T1D", "Cell division index (CDI)", 2.0],
  ["EAEDLQVGQVELGGGPGAGSLEPLALEGSLQ [Q22E, C-peptide variant with glutamine 22 substituted for glutamic acid]", "CD4+ T cells in PBMC from people with recent onset T1D", "Cell division index (CDI)", 2.3],
  ["EAEDLQVGEVELGGGPGAGSLQPLALEGSLQ [Q9E, C-peptide variant with glutamine 9 substituted for glutamic acid]", "CD4+ T cells in PBMC from people with recent onset T1D", "Cell division index (CDI)", 1.3],
  ["EAEDLEVGQVELGGGPGAGSLQPLALEGSLQ [Q6E, C-peptide variant with glutamine 6 substituted for glutamic acid]", "CD4+ T cells in PBMC from people with recent onset T1D", "Cell division index (CDI)", 2.9],
  ["EAEDLEVGEVELGGGPGAGSLEPLALEGSLE [QallE, C-peptide with all four glutamines substituted for glutamic acid]", "CD4+ T cells in PBMC from people with recent onset T1D", "Cell division index (CDI)", 1.0],
  ["EAEDLQVGQVELGGGPGAGSLQPLALEGSLQ [WT, reference compound]", "CD4+ T cells in PBMC from people with recent onset T1D", "Cell division index (CDI)", 2.3]
]}

----------
- Tested on: CD4+ T cells in PBMC from subjects without T1D
- MEASUREMENT NOTES: CFSE-based proliferation assay, PBMC of subjects without T1D
- Format: cell-based, human
- STUDY CONDITIONS: donor 6 without T1D; CFSE-labelled PBMC, peptide 10 μM; mean CDI
The entries below are paired with their reported Cell division index (CDI).

{"columns": ["RESIDUE CODES", "Cell division index (CDI)"],
 "data": [
  ["EAEDLEVGEVELGGGPGAGSLEPLALEGSLE [QallE, C-peptide with all four glutamines substituted for glutamic acid]", 7.8],
  ["EAEDLQVGQVELGGGPGAGSLQPLALEGSLE [Q31E, C-peptide variant with glutamine 31 substituted for glutamic acid]", 1.9],
  ["EAEDLQVGEVELGGGPGAGSLQPLALEGSLQ [Q9E, C-peptide variant with glutamine 9 substituted for glutamic acid]", 3.4],
  ["EAEDLQVGQVELGGGPGAGSLQPLALEGSLQ [WT, reference compound]", 2.5],
  ["EAEDLEVGQVELGGGPGAGSLQPLALEGSLQ [Q6E, C-peptide variant with glutamine 6 substituted for glutamic acid]", 5.5],
  ["EAEDLQVGQVELGGGPGAGSLEPLALEGSLQ [Q22E, C-peptide variant with glutamine 22 substituted for glutamic acid]", 2.4]
]}

----------
The entries below are paired with their reported Cell division index (CDI).
- Tested on: CD4+ T cells in PBMC from subjects without T1D
- MEASUREMENT NOTES: CFSE-based proliferation assay, PBMC of subjects without T1D
- Assay type: cell-based, human
- STUDY CONDITIONS: donor 3 without T1D; CFSE-labelled PBMC, peptide 10 μM; mean CDI

{"columns": ["RESIDUE CODES", "TESTED ON", "Cell division index (CDI)"],
 "data": [
  ["EAEDLQVGQVELGGGPGAGSLQPLALEGSLE [Q31E, C-peptide variant with glutamine 31 substituted for glutamic acid]", "CD4+ T cells in PBMC from subjects without T1D", 3.6],
  ["EAEDLQVGEVELGGGPGAGSLQPLALEGSLQ [Q9E, C-peptide variant with glutamine 9 substituted for glutamic acid]", "CD4+ T cells in PBMC from subjects without T1D", 1.2],
  ["EAEDLEVGEVELGGGPGAGSLEPLALEGSLE [QallE, C-peptide with all four glutamines substituted for glutamic acid]", "CD4+ T cells in PBMC from subjects without T1D", 0.9],
  ["EAEDLEVGQVELGGGPGAGSLQPLALEGSLQ [Q6E, C-peptide variant with glutamine 6 substituted for glutamic acid]", "CD4+ T cells in PBMC from subjects without T1D", 2.1],
  ["EAEDLQVGQVELGGGPGAGSLEPLALEGSLQ [Q22E, C-peptide variant with glutamine 22 substituted for glutamic acid]", "CD4+ T cells in PBMC from subjects without T1D", 0.9],
  ["EAEDLQVGQVELGGGPGAGSLQPLALEGSLQ [WT, reference compound]", "CD4+ T cells in PBMC from subjects without T1D", 1.2]
]}

----------
The entries below are paired with their reported Cell division index (CDI).
- Tested on: CD4+ T cells in PBMC from subjects without T1D
- MEASUREMENT NOTES: CFSE-based proliferation assay, PBMC of subjects without T1D
- Assay type: cell-based, human
- STUDY CONDITIONS: donor 4 without T1D; CFSE-labelled PBMC, peptide 10 μM; mean CDI
- From the text: Blood was obtained by venepuncture. Peripheral blood mononuclear cells (PBMC) were isolated over Ficoll-paque (GE Healthcare) and washed twice in phosphate buffered saline (PBS) as described. […] Our analysis of CD4^+ Jurkat lines expressing TCRs derived from primary CD4^+ T cells used TCRs derived from CD4^+ T cells that were selected for their specificity for WT C-peptide. […] To address this, we measured polyclonal CD4^+ T-cell responses in PBMC from people with recent onset type 1 diabetes. […]
MEASUREMENT TYPE: Cell division index (CDI)

{"columns": ["RESIDUE CODES", "TESTED ON", "RECORDED RESULT"],
 "data": [
  ["EAEDLQVGQVELGGGPGAGSLQPLALEGSLQ [WT, reference compound]", "CD4+ T cells in PBMC from subjects without T1D", 0.3],
  ["EAEDLEVGQVELGGGPGAGSLQPLALEGSLQ [Q6E, C-peptide variant with glutamine 6 substituted for glutamic acid]", "CD4+ T cells in PBMC from subjects without T1D", 0.8],
  ["EAEDLEVGEVELGGGPGAGSLEPLALEGSLE [QallE, C-peptide with all four glutamines substituted for glutamic acid]", "CD4+ T cells in PBMC from subjects without T1D", 1.3],
  ["EAEDLQVGQVELGGGPGAGSLQPLALEGSLE [Q31E, C-peptide variant with glutamine 31 substituted for glutamic acid]", "CD4+ T cells in PBMC from subjects without T1D", 0.8],
  ["EAEDLQVGEVELGGGPGAGSLQPLALEGSLQ [Q9E, C-peptide variant with glutamine 9 substituted for glutamic acid]", "CD4+ T cells in PBMC from subjects without T1D", 0.8],
  ["EAEDLQVGQVELGGGPGAGSLEPLALEGSLQ [Q22E, C-peptide variant with glutamine 22 substituted for glutamic acid]", "CD4+ T cells in PBMC from subjects without T1D", 1.7]
]}
